Assay: in vivo
Details: rat, 1 mg/kg
observable: half-life (h)
Unit h implied. Number only.

>>> print(df.to_string())
                                   molecule  observable  scaleunit  quantitativeresult
0  Cc1ccc(C(C)CC(CC(C)(C)O)NCC(C)C)cc1 (centres unmarked)   half-life          h                2.68

Let us examine a further case.
Prompt: Which half-life is reported for this molecule? CC1=CC=C(C(C)CC(CC(C)(C)O)NCC(C)C)CC1 (centres unmarked)
Response: 1.15
